Source of measurements: paper PMC3827032

- target: Hsp70 (Homo sapiens)
- assay details: crystal structure of NBD ([…] Å), ITC ([…]), SPR ([…]), DSC, ATPase inhibition (Ki […]; […] with Hdj1)
- Assay type: binding
- Design: gene HSPA1A; full-length (ITC, SPR); NBD residues 1–382 (crystal structure)
experimental endpoint: Kd
Value and unit, in that order.

State its Kd for this compound: `N#Cc1ccc(COC[C@H]2O[C@@H](n3c(NCc4ccc(Cl)c(Cl)c4)nc4c(N)ncnc43)[C@H](O)[C@@H]2O)cc1`
228 nM

###

- target: Hsp70 (Homo sapiens, UniProt P0DMV8)
- Sequence (P0DMV8 2-641): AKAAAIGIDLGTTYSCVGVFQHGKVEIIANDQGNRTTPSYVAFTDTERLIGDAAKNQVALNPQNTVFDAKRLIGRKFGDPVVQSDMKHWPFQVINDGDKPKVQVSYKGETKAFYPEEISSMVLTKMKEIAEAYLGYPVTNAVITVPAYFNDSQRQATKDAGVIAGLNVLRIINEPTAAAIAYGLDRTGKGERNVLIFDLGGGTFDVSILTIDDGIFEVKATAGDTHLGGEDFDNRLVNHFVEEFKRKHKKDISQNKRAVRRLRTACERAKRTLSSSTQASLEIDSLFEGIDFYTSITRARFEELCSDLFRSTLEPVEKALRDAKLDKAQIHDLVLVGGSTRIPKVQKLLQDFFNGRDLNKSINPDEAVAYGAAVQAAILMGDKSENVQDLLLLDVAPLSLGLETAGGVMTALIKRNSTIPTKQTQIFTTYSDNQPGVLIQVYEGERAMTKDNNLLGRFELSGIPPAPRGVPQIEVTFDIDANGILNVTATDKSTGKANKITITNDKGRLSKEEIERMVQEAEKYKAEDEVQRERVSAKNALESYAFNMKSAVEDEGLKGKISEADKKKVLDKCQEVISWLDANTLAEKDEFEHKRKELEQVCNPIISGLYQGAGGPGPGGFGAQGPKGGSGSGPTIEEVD
- assay details: ITC ([…]), SPR ([…]), DSC (Tm +[…]°C)
- Type: binding
- Design: gene HSPA1A; full-length, nucleotide-free
experimental endpoint: Kd (nM)
Kindly answer with a numeric value in nM, unit omitted.

State its Kd for this compound: `Nc1ncnc2c1ncn2[C@@H]1O[C@H](COP(=O)(O)OP(=O)(O)O)[C@@H](O)[C@H]1O`
7.7
